The reader will find reported IC50 values listed item by item below.
# Tested on: Trypanosoma brucei brucei
# Test description: Antiparasitic activity against Trypanosoma brucei brucei Lister 427 assessed as reduction in parasite viability after 48 hrs by MTS assay
# Type: functional, organism-based
# Measurement context: Lister 427, 48 h

Example entries begin here.
Mol smiles | IC50
Cc1cc(NC(=O)c2ccc(C#N)cc2)ccc1NS(C)(=O)=O | > 62.5 µM
N#Cc1ccc(C(=O)Nc2ccc(NS(=O)(=O)C(F)(F)F)c(F)c2)cc1 | 2.1 µM
COc1cc(NC(=O)c2cc(C(F)(F)F)cc(C(F)(F)F)c2)ccc1NS(=O)(=O)C(F)(F)F | > 62.5 µM

Query :: # lookup: IC50 of COc1cc(NC(=O)c2ccc(Cl)c([N+](=O)[O-])c2)ccc1NS(=O)(=O)C(F)(F)F
Result :: 14.1 µM

Query :: # lookup: IC50 of CCS(=O)(=O)Nc1ccc(NC(=O)c2ccc(Cl)c([N+](=O)[O-])c2)cc1OC
Result :: > 62.5 µM

Query :: # lookup: IC50 of COc1cc(NC(=O)c2ccc(Cl)c([N+](=O)[O-])c2)ccc1NS(C)(=O)=O
Result :: > 62.5 µM

Query :: # lookup: IC50 of Cc1cc(NC(=O)c2ccc(Cl)cc2)ccc1NS(C)(=O)=O
Result :: > 62.5 µM

Query :: # lookup: IC50 of CCS(=O)(=O)Nc1ccc(NC(=O)c2ccc(Cl)c([N+](=O)[O-])c2)cc1C
Result :: 19.4 µM

Query :: # lookup: IC50 of CCS(=O)(=O)Nc1ccc(NC(=O)c2ccc(Cl)cc2)cc1OC
Result :: > 62.5 µM

Query :: # lookup: IC50 of CCS(=O)(=O)Nc1ccc(NC(=O)c2ccc(C#N)cc2)cc1F
Result :: > 62.5 µM
